Values from PubChem BioAssay AID179

System: CEM cells HIV-1 protection, formazan growth assay
Test: NCI AIDS Antiviral Assay
pEC50: −log10 of the molar value.
Measure: pEC50

What measured pEC50 is associated with `COc1c(C=O)c2c(c(OC)c1OC)-c1ccc(OC)c(=O)cc1[C@@H](NC(C)=O)CC2` on CEM cells HIV-1 protection, formazan growth assay?
< 6.70

Give pEC50 (CEM cells HIV-1 protection, formazan growth assay) of the following compound: `COc1ccc(/C=C(/C(=O)c2ccccc2)c2ccccc2)cc1`
< 5.06

What reported pEC50 corresponds to `Nc1c(Cl)cc(Cl)cc1C(=O)O` on CEM cells HIV-1 protection, formazan growth assay?
< 3.70

Write down the reported pEC50 of `CCOC(=O)c1cnc(-n2[nH]c(C)c(CCO)c2=O)[nH]c1=O` , test system: CEM cells HIV-1 protection, formazan growth assay.
< 3.70

Continuing:
Report pEC50 for `N#Cc1c(N)oc(-c2ccc([N+](=O)[O-])cc2)c1C#N` tested on CEM cells HIV-1 protection, formazan growth assay.
< 3.70

Request - read-out pEC50 | tested on CEM cells HIV-1 protection, formazan growth assay | compound `Cc1cc(C=C2C(=O)NC(=S)NC2=O)c(C)n1-c1ccccc1`
< 5.21
